Origin of values: the RNAGym collection of RNA variant scans (doi:10.1126/science.aae0568)

Overview of reported yeast fitness across a group of variants:
B1: tRNA (parent)
chain: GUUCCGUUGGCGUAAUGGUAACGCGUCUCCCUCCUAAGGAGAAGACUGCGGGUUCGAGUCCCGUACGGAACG

variants of: B1; experiment: yeast fitness relative to wild type (ratio to wild type); higher = fitter; tRNA-Arg(CCU), competitive growth, 37 C, YPD
Fewer inactive variants are shown than the library holds.
READOUT_LABEL: yeast fitness

1. GUUCGGUUGGCGUAAUGGUAACGCGUCUCCCUCCUAAGGAGCAGACUGCGGGUUCGAGUCCCGUACGGACCG | 0.689
2. GUUCCGUUAGCGUAAAGGUAACGCGUCUCCCUCCUAAGGAGAAGACUGCGGGUUCGAGUCCCGUACGGAACG | 1.08
3. GUUCCGUUGGCGUAAUGGUAACGCGUCUCCCUCCUAAGGAGUAGACUGCGCGUUCGAGUCCUGUAUGGAACG | 0.708
4. GUUCCGUUGGCGUAAUGGUAACGCGUCUCCCUCCUAAGGAGGAGACUGCGGGUUCGAGUCCCGUACGGCACG | 0.95
5. GUUCCGUUGGCGUAAUGGUAACGCGUCUCCCUCCUAAGGAGAUGACUGCGGGUUCGAGUCCGGUAAGGCACG | 0.67
6. GUUCCGUUGGCGUAAUGGUAACGCGUCUCGCUCCUACGGAGAAGGCUGCGGGUUCGAGUCCCGUACGGAACG | 0.633
7. GUUCCGUUGGCGUAAUGGUAAGGCCUCUCCCUCCUAAGGAGAGGACUGCGGGUUCGAGUCCCGUACGGAACG | 0.584
8. GUUCCGUUGGUGUAAUGGUAACACGUCUCCCUCCUAAGGAGAAGACUGCGGGUUCGAGUCCCGUACGGAACG | 0.952
9. GGUCCGUUGGCGUAAUGGUCACGCGUUUCCCUCCUAAGGAGAAGAAUGCGGGUUCGAGUCCCGUACGGAACG | 0.614
10. GUUCGGUUGGCGUAAAGGUAACGCGUCUCCCUCCUAAGGAGAAGACUGCGGGUUCGAGUCCCGUACGGAACG | 0.959
11. GUUCCGUUGGCGUAAUGGUAUCGCGUCUCCCUCCUAAGGAGAAGACUGCGGGUUCGAGUCCCGCACGGAACG | 0.775
12. GUUCCGUUGGCGUAAUGGUAGUGCGUCUCCCUCCUAAGGAGAAGACUGCGGGUUCGGGUCCCGUACGGAACG | 0.614
13. GUUCCGUUGGCGUAGUGGUAACGCGUCUCCGUCCUAAGGAGAAGACUGCGGGUUCGAGUCCCGUACGGAACG | 0.852
14. GUUCCGUUGGCGUAAUGGUAACGCGUCUCCCUCCUAAGGAGAAGACUGCGGGUUCGGGCCCCGUACGGAACG | 0.864
15. GUUCUGUUGGCGUAAUGGUAACGCGUCUCCCUCAUAAGGAGAAGACUGCGGGUUUGAGUCCCGUACGGAACG | 0.529
